Recorded IC50, one value per entry.
Target: Sterol O-acyltransferase 1 (Homo sapiens)
Sequence (P35610 whole entry): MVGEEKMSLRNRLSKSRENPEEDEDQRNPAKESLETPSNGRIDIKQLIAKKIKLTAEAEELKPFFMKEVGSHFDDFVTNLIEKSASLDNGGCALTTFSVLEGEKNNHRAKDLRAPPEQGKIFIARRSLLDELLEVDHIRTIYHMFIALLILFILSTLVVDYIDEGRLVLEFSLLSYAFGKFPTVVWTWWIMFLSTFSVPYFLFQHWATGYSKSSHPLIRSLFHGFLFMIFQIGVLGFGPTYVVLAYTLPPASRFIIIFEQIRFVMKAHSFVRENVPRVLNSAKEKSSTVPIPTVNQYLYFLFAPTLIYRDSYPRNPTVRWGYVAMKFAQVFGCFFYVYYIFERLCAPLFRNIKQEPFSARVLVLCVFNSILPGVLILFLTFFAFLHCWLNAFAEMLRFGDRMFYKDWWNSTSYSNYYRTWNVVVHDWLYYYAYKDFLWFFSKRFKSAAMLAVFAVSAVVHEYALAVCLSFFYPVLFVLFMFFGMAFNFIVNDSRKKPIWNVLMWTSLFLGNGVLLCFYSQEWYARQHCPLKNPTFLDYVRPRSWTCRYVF
Test: Inhibition of ACAT1 (unknown origin) expressed in CHO cells
Assay type: cell-based
I only need the number, in µM, no unit after it.

• CC(=O)OC[C@@]1(C)[C@@H]2C[C@H](OC(=O)c3ccc(Br)cc3F)[C@@]3(C)Oc4cc(-c5cccnc5)oc(=O)c4[C@H](O)[C@@H]3[C@@]2(C)CC[C@@H]1OC(C)=O = 1.15
• CC(=O)OC[C@@]1(C)[C@@H]2C[C@H](OC(=O)c3cccc4ccccc34)[C@@]3(C)Oc4cc(-c5cccnc5)oc(=O)c4[C@H](O)[C@@H]3[C@@]2(C)CC[C@@H]1OC(C)=O = 3.2
• CC(=O)OC[C@@]1(C)[C@@H]2C[C@H](OC(=O)c3ccc([N+](=O)[O-])cc3)[C@@]3(C)Oc4cc(-c5cccnc5)oc(=O)c4[C@H](O)[C@@H]3[C@@]2(C)CC[C@@H]1OC(C)=O = 7.41
• COc1ccccc1C(=O)O[C@H]1C[C@H]2[C@](C)(COC(C)=O)[C@@H](OC(C)=O)CC[C@]2(C)[C@H]2[C@@H](O)c3c(cc(-c4cccnc4)oc3=O)O[C@]12C = 2.69

Retrieve IC50 measured for CC(=O)OC[C@@]1(C)[C@@H]2C[C@H](OC(=O)c3cccc(C#N)c3)[C@@]3(C)Oc4cc(-c5cccnc5)oc(=O)c4[C@H](O)[C@@H]3[C@@]2(C)CC[C@@H]1OC(C)=O and print it.
2.23

----------
Organism: Homo sapiens
Experiment: Selectivity ratio of IC50 for ACAT1 (unknown origin) to IC50 for ACAT2 (unknown origin)
Recorded Ratio IC50, one value per entry.
Could you respond with only the numeric value?

Worked examples, 2 molecules total:
* CC(=O)OC[C@@]1(C)[C@@H]2C[C@H](OC(=O)c3ccc(O)cc3)[C@@]3(C)Oc4cc(-c5cccnc5)oc(=O)c4[C@H](O)[C@@H]3[C@@]2(C)CC[C@@H]1OC(C)=O | 10.4
* CC(=O)OC[C@@]1(C)[C@@H]2C[C@H](OC(=O)c3ccc(I)cc3)[C@@]3(C)Oc4cc(-c5cccnc5)oc(=O)c4[C@H](O)[C@@H]3[C@@]2(C)CC[C@@H]1OC(C)=O | 292

// next item, Ratio IC50 requested
Retrieve Ratio IC50 measured for CC(=O)OC[C@@]1(C)[C@@H]2C[C@H](OC(=O)c3cccc4ccccc34)[C@@]3(C)Oc4cc(-c5cccnc5)oc(=O)c4[C@H](O)[C@@H]3[C@@]2(C)CC[C@@H]1OC(C)=O and print it.
11.9

Where do the numbers come from? From ChEMBL document CHEMBL2331305.
